# key: entry, value: Kd
molecular target: Complement C1q (UniProt P02745;P02746;P02747 P02745:23-245,P02746:28-253,P02747:29-245); assay: filter; MgPBS 37C; conditions: tags: Quidel; chain copies: 6
Remember to quote the unit after the number.

Would you please look over these solved cases?
binder	reportedMetric	assayResult
C1q clone 45 (ssRNA, 2'-NH2 pyrimidines) RNA: GGGAGGACGAUGCGGUGGAGUGGAGGUAUACCGGCCGGUAGCGCAUCCCACUCGGGUCUGUGCUCAGACGACUCGCCCGA	Kd	1.38 nM
C1q clone 14 (ssRNA, 2'-NH2 pyrimidines) RNA: GGGAGGACGAUGCGGCACCUCACCUCCAUAUUGCCGGUUAUCGCGUAGGGUGAGCCCAGACACGACAGACGACUCGCCCGA	Kd	2.4 nM

Here is another binder to look at.
Look up Kd: C1q clone 33 (ssRNA, 2'-NH2 pyrimidines) RNA: GGGAGGACGAUGCGGGUUGCUGGUAGCCUGAUGUGGGUGGAGUGAGUGGAGGGUUGAAAAAUGCAGACGACUCGCCCGA
3.85 nM
